Sourced from ChEMBL document CHEMBL2390914

assay_summary: Plasma concentration in Duncan Hartley guinea pig at 10 mg/kg, po
Format: ADME, organism-based, Cavia porcellus
Parameters: dose 10 mg/kg, route oral
condition_set: in vivo
Each entry below lists one item and its recorded concentration value.
Field: numeric (nM). Do not append units.

O=C(N[C@H]1CCC[C@H](CO)C1)C1CCN(c2nc3cc(Cl)c(C(F)(F)F)cc3o2)CC1 :: 1600
COc1ccc2cc([C@H](C)C(=O)O)ccc2c1 :: 154000
O=C(N[C@H]1CCC[C@H](CO)C1)C1CCN(c2nc3cc(Cl)c(-c4ccc(OC(F)(F)F)cc4)cc3o2)CC1 :: 510

Read the next record carefully.
Value of measured concentration for the entry O=C(N[C@H]1CCC[C@H](CO)C1)C1CCN(c2nc3cc(Cl)c(-c4ccc(Cl)cc4)cc3o2)CC1 : 1200
